Target: hROMK (hKir1.1) (Homo sapiens)
Sequence (P48048 whole entry): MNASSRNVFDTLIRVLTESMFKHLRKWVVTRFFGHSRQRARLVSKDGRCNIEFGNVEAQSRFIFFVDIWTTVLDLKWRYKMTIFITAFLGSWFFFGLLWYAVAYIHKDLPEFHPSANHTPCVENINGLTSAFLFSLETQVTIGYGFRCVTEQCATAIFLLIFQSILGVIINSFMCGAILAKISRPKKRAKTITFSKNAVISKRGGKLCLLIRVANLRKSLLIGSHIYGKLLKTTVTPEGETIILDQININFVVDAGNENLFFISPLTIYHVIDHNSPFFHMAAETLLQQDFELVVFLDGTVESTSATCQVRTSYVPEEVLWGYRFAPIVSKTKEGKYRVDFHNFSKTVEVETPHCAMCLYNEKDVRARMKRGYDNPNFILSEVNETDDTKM
Assay: Thallium Flux Assay (ROMK channel functional thallium flux assay, FLIPR-Tetra)
Conditions: HEK293 cells stably expressing hROMK (hKir1.1); FluxOR thallium flux, 30 min compound incubation; concentration inhibiting 50% of ROMK thallium flux signal
pIC50: −log10 of the molar value.
Endpoint name: pIC50

See these solved cases before continuing.
Molecule: Cc1c([C@@H](O)CN2CCC3(CC2)CCN(c2snc4ncccc24)C3)ccc2c1COC2=O [Example 27]
pIC50: 6.50

Molecule: OC(CN1CCC2(CCN(c3ccc4nncn4n3)CC2)C1)c1ccc(-n2cnnn2)nc1 (racemic) [Example 69]
pIC50: 7.14

(P) CCc1nnc2ccc(N3CCC4(CCN(C[C@H](O)c5ccc6c(c5C)COC6=O)CC4)C3)nn12 [Example 16]
(Q) Cc1c([C@@H](O)CN2CCC3(CC2)CCN(c2nccn4nccc24)C3)ccc2c1COC2=O [Example 1]
(R) N#Cc1ccc(C(O)CN2CCC3(CC2)CC(=O)N(c2ccc4nncn4n2)C3)nc1 (centres unmarked) [Example 59]
input: # rank_down: sort by pIC50, max first Form entry: labels listed in requested order.
output: P, R, Q

(A) OC(CN1CCC2(CC1)CCN(c1ccc3nncn3n1)C2)c1ccc(-n2cnnn2)nc1 (racemic) [Example 52]
(B) Cc1nc(C(O)CN2CCC3(CC2)CCN(c2ccc4nncn4n2)C3)ccc1C#N (centres unmarked) [Example 47]
input: Among A and B , whose measured pIC50 is the smaller figure? Answer by quoting the chosen item's label.
output: B
